tested on: S. aureus ATCC 13709; assay: MIC, antibacterial potency, S. aureus; format: cell-based; conditions: S. aureus (SA); in µg/mL
OBSERVABLE: MIC, SA

MOLECULE	OBSERVED
CCc1[nH]c2nc(Oc3cncc(C#N)c3)nc(Oc3ccc4ncnc(N5CC(N)C5)c4c3)c2c1Br [701,298]	2
CCc1[nH]c2nc(Sc3ccc4ccc(C(=O)O)nc4c3)nc(N3CC(CNS(C)(=O)=O)C3)c2c1Cl [700,806]	4
CCc1[nH]c2nc(Sc3cc(C#N)c4c(c3)c(=O)ccn4C)nc(N3CC[C@@H](N)C3)c2c1Cl [701,088]	1
CCc1[nH]c2nc(Sc3cnc4nccnc4c3)nc(N3CCNCC3)c2c1Cl.O=C(O)C(F)(F)F [700,791]	64

P: CCc1[nH]c2nc(Sc3cnc4c(N)nc(CN5CCNCC5)nc4c3)nc(N3CC[C@@H](N)C3)c2c1Cl [700,826]
Q: CCc1[nH]c2nc(Oc3cncc(C#N)c3)nc(Oc3cc(C#N)cc(OC)c3)c2c1Br [700,933]
R: CCc1[nH]c2nc(Sc3cnc4nccnc4c3)nc(N3CCC4(CC4N)C3)c2c1Cl (stereo not shown) [700,986]
S: CCc1[nH]c2nc(Sc3ccc4c(N5CC(CN)C5)ncnc4c3)nc(N3CC[C@@H](N)C3)c2c1Cl [700,904]
(Q) Put the items in sequence by MIC, SA, from largest down. # list labels per requested ordering
(A) S, P, Q, R

---

tested on: S. aureus ATCC 13709; test: MIC, antibacterial potency, S. aureus; assay type: cell-based; details: S. aureus (SA); in µg/mL
OBSERVABLE: MIC, SA

A: CCc1[nH]c2nc(Sc3ccc4c[n+]([O-])cnc4c3)nc(N3CC[C@@H](N)C3)c2c1Cl
B: CCc1[nH]c2nc(Oc3cncnc3)nc(Oc3cnc(N)nc3)c2c1Cl
C: CCc1[nH]c2nc(Sc3ccc4[nH]nnc4c3)nc(N3CC[C@@H](N)C3)c2c1Cl
D: CCc1[nH]c2nc(Sc3cnc4cccnc4c3)nc(N3CC[C@@H](N)C3)c2c1C
(Q) Thanks in advance: please rank these 4 entries by MIC, SA, highest to lowest. # list labels per requested ordering
(A) C, D, A, B
(C: 8, D: 4, A: 2, B: 1)

---

tested on: S. aureus ATCC 13709; test: MIC, antibacterial potency, S. aureus; type: cell-based; settings: S. aureus (SA); in µg/mL
OBSERVABLE: MIC, SA

Example cases with answers are listed next.
MOLECULE	TESTED_TARGET	MIC, SA
CCc1[nH]c2nc(Sc3cnc4nccnc4c3)nc(N3CC4CC(O)C4C3)c2c1Cl (stereo not shown) [700,957]	S. aureus ATCC 13709	<=0.5
CCc1[nH]c2nc(Sc3ccc4c(N)nc(CN5CCNCC5)nc4c3)nc(N3CC[C@@H](N)C3)c2c1Cl [700,847]	S. aureus ATCC 13709	>64
CCc1[nH]c2nc(Sc3cnc4cccnc4c3)nc(N3CCC(c4cccnc4)C3)c2c1Cl (stereo not shown) [700,871]	S. aureus ATCC 13709	<=0.5
CCc1[nH]c2nc(Sc3ccc4c(N5CC[C@@H](N)C5)nc(C(=O)O)nc4c3)nc(N3CC[C@@H](N)C3)c2c1Cl [700,955]	S. aureus ATCC 13709	8
CCc1[nH]c2nc(Sc3ccc4nnc(C(=O)NCC5CCNCC5)nc4c3)nc(N3CC[C@@H](N)C3)c2c1Cl [700,845]	S. aureus ATCC 13709	>64
CCc1[nH]c2nc(Oc3ccc4nccnc4c3)ncc2c1Cl [701,238]	S. aureus ATCC 13709	4
CCc1[nH]c2nc(Sc3cnc4cccnc4c3)nc(N3CC4CC(C3)N(C(=O)OC(C)(C)C)C4)c2c1Cl (stereo not shown) [701,132]	S. aureus ATCC 13709	>64
CCc1[nH]c2nc(Sc3cnc4nccnc4c3)nc(N3C[C@@H]4[C@H](C3)[C@H]4N(Cc3ccccc3)Cc3ccccc3)c2c1Cl [700,822]	S. aureus ATCC 13709	>64
CCc1[nH]c2nc(Oc3cncc(C#N)c3)nc(Cc3cccc(C#N)c3)c2c1Cl [700,927]	S. aureus ATCC 13709	<=0.5
CCc1[nH]c2nc(Oc3ccc4nccnc4c3)nc(Oc3ccc4nccnc4c3)c2c1Br [700,938]	S. aureus ATCC 13709	<=0.5

Consider CCc1[nH]c2nc(Oc3ccc4nccnc4c3)nc(N3CC4C(C3)C4(N)C(N)=O)c2c1Br (stereo not shown) [700,980] . Its measured MIC, SA is <=0.5

Consider CCc1[nH]c2nc(Oc3cncc(OC)c3)nc(Oc3cccc(C#N)c3)c2c1Br [700,982] . Its measured MIC, SA is <=0.5

Consider CCc1[nH]c2nc(Oc3cnc(C)nc3)nc(Oc3cc(C#N)ccc3F)c2c1Br [701,288] . Its measured MIC, SA is <=0.5

Consider NC1C2CN(c3nc(Sc4cnc5cccnc5c4)nc4[nH]c(C5CC5)c(Cl)c34)CC12 (stereo not shown) [701,063] . Its measured MIC, SA is 2

Consider CCc1[nH]c2nc(Oc3cccc(C#N)c3)nc(C(C)NCCO)c2c1Cl (stereo not shown) [700,953] . Its measured MIC, SA is >32

---

test system: S. aureus ATCC 13709; assay: MIC, antibacterial potency, S. aureus; type: cell-based; details: S. aureus (SA); in µg/mL
OBSERVABLE: MIC, SA

COMPOUND	OBSERVED
CCc1[nH]c2nc(Oc3ccc4nccnc4c3)nc(Oc3cnc4c(c3)ncn4C)c2c1Br	<=0.5
CCc1[nH]c2nc(Sc3cnc4ccc[n+]([O-])c4c3)nc(N3CC(O)C3)c2c1Cl	<=0.5
CCc1[nH]c2nc(Oc3cncc(C#N)c3)nc(Oc3ccc(OC)c(OC)c3)c2c1Cl	>64
CCc1[nH]c2nc(Sc3cnc4c(c3)ncc(=O)n4CCCN3CCCC3=O)nc(N3CC[C@@H](N)C3)c2c1Cl	>32
CCc1[nH]c2nc(Oc3cccc(C#N)c3)nc(Oc3cncnc3)c2c1Br	1

Consider CCc1[nH]c2nc(Sc3cnc4nccnc4c3)nc(N3CC4NC4C3)c2c1Cl (centres unmarked) . Its measured MIC, SA is 4

Consider CCc1[nH]c2nc(Sc3cnc4nccnc4c3)nc(N3CC(NC(=O)C4CNC4)C3)c2c1Cl . Its measured MIC, SA is 4

Consider CCNC(=O)NC1C2CN(c3nc(Sc4cnc5cccnc5c4)nc4[nH]c(CC)c(Cl)c34)CC21 (centres unmarked) . Its measured MIC, SA is <=0.5

---

tested on: S. aureus ATCC 13709; assay: MIC, antibacterial potency, S. aureus; assay type: cell-based; details: S. aureus (SA); in µg/mL
OBSERVABLE: MIC, SA

Example cases with answers are listed next.
COMPOUND	MIC, SA
CCOC(=O)/C=C/c1ccc(Sc2nc(N3CC[C@@H](N)C3)c3c(Cl)c(CC)[nH]c3n2)cc1F	4
CCc1[nH]c2nc(Sc3ccc4nc(N5CC(N)C5)cnc4c3)nc(N3CC[C@@H](N)C3)c2c1Cl	4
CCc1[nH]c2nc(Oc3cncc(C#N)c3)ncc2c1Cl	4
CCc1[nH]c2nc(Sc3ccc4cccnc4c3)nc(N3CC[C@@H](N)C3)c2c1Cl	1

A: CCc1[nH]c2nc(Sc3cnc4nccnc4c3)nc(N3C[C@@H]4[C@H](C3)[C@@]4(N)CN)c2c1Cl
B: CCc1[nH]c2nc(Oc3ccc4nccnc4c3)nc(N3CC(N)C3)c2c1Cl
C: CCc1[nH]c2nc(Oc3cnc4ccoc4c3)nc(N3CC4CNC4C3)c2c1Cl (centres unmarked)
D: CCc1[nH]c2nc(Sc3cnc4c(NCC5OCCO5)nc(C)nc4c3)nc(N3CC[C@@H](N)C3)c2c1Cl
(Q) Put the items in sequence by MIC, SA, from largest down. # list labels per requested ordering
(A) C, D, A, B
(C: 64, D: 32, A: 4, B: 1)

---

test system: S. aureus ATCC 13709; assay: MIC, antibacterial potency, S. aureus; format: cell-based; settings: S. aureus (SA); in µg/mL
OBSERVABLE: MIC, SA

Example cases with answers are listed next.
MOLECULAR_STRING	OBSERVED
CCc1[nH]c2nc(Sc3cnc4cccnc4c3)nc(N3C[C@@H](N)[C@@H](C(=O)OC)C3)c2c1Cl	2
CCc1[nH]c2nc(Oc3ccc4c(N5CC(N)C5)ncnc4c3)nc(Oc3cccc(C#N)c3)c2c1Br	8
CCc1[nH]c2nc(Oc3cnc(N)nc3)nc(N3CC(CN(C)C)C3)c2c1Cl	16

a: CCc1[nH]c2nc(Sc3cnc4cccnc4c3)nc(N3C[C@@H]4[C@H](C3)[C@@]4(N)CN)c2c1Cl
b: CCc1[nH]c2nc(Sc3cnc4nccnc4c3)nc(N(CCN)CC(C)C)c2c1Cl
(Q) # returns the entry with the larger MIC, SA; inputs a and b Please indicate the selected item by its label.
(A) b
(b: 64, a: 2)
